Below are compounds with their pIC50 as measured on mitochondrial diazepam binding inhibitor receptor (MDR) (Rattus norvegicus).
Sequence (P16257 whole entry): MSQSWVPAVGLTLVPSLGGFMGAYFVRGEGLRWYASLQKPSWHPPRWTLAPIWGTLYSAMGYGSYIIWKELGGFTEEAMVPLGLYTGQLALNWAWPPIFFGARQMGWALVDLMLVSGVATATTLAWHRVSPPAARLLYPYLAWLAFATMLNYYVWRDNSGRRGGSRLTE
pIC50: −log10 of the molar value.
Reported property: pIC50

[[record]]
compound = "CCCCCCN(CCCCCC)C(=O)C1Sc2ccccc2-c2[nH]c3ccc(F)cc3c21 (stereo not drawn) [Compound 09]"
numeric_value = 7.86

[[record]]
compound = "CCCCCCN(CCCCCC)C(=O)C1c2c([nH]c3ccccc23)-c2ccccc2N1C(C)=O (stereo not drawn) [Compound 28]"
numeric_value = 7.90

[[record]]
compound = "CCCCCCN(CCCCCC)C(=O)C1Sc2ccccc2-c2[nH]c3ccc(C)cc3c21 (stereo not drawn) [Compound 11]"
numeric_value = 7.86

